- Test system: LG0703-F948-PDC complex spheroid viability;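 note: spheroids exposed to agents for 7 days; 100% = DMSO vehicle wells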
- Test Summary: Anticancer human tumor LG0703-F948-PDC patient-derived lung adenocarcinoma cell line growth inhibition [RAS]
- Measurement Conditions: second compound 0.316 µM; first compound 0.0316 µM; hits give low values
Measure: viability, T/C (%)
Please state the figure in %; there is no need to write the unit.

Sample records with viability, T/C:
compound="CC(C)n1nc(-c2ccc3oc(N)nc3c2)c2c(N)ncnc21 + C#Cc1c(F)ccc2cc(O)cc(-c3ncc4c(N5CC6CCC(C5)N6)nc(OCC56CCCN5CC(F)C6)nc4c3F)c12" measure="viability, T/C" observed=11.2
compound="CC(Nc1ccc2c(c1)OCCn1cc(N3C(=O)OCC3C(F)F)nc1-2)C(N)=O (stereo unspecified) + C#Cc1c(F)ccc2cc(O)cc(-c3ncc4c(N5CC6CCC(C5)N6)nc(OCC56CCCN5CC(F)C6)nc4c3F)c12" measure="viability, T/C" observed=78.1
compound="C[C@@H](NC(=O)c1ncnc(N)c1Cl)c1ncc(C(=O)Nc2cc(C(F)(F)F)c(Cl)cn2)s1 + C#Cc1c(F)ccc2cc(O)cc(-c3ncc4c(N5CC6CCC(C5)N6)nc(OCC56CCCN5CC(F)C6)nc4c3F)c12" measure="viability, T/C" observed=85.8
compound="C=CC(=O)N1CCN(c2nc(OCC3CCCN3C)nc3c(F)c(-c4nc(N)cc(C)c4C(F)(F)F)c(Cl)cc23)C(C)C1 (stereo unspecified) + C#Cc1c(F)ccc2cc(O)cc(-c3ncc4c(N5CC6CCC(C5)N6)nc(OCC56CCCN5CC(F)C6)nc4c3F)c12" measure="viability, T/C" observed=86.1

Hello, please tell me recorded viability, T/C for this one: C[C@@H](NC(=O)c1ncnc(N)c1Cl)c1ncc(C(=O)Nc2cc(C(F)(F)F)c(Cl)cn2)s1 + C=CC(=O)N1CCN(c2nc(OCC3CCCN3C)nc3c(F)c(-c4nc(N)cc(C)c4C(F)(F)F)c(Cl)cc23)C(C)C1
118

Hello, please tell me recorded viability, T/C for this one: Nc1ccn(C2OC(CO)C(O)C2(F)F)c(=O)n1 (stereo unspecified) + C#Cc1c(F)ccc2cc(O)cc(-c3ncc4c(N5CC6CCC(C5)N6)nc(OCC56CCCN5CC(F)C6)nc4c3F)c12
31.6
